- test.target: human Factor XIa (Homo sapiens (Human), UniProt P03951)
- Sequence (P03951 388-625 limits assumed): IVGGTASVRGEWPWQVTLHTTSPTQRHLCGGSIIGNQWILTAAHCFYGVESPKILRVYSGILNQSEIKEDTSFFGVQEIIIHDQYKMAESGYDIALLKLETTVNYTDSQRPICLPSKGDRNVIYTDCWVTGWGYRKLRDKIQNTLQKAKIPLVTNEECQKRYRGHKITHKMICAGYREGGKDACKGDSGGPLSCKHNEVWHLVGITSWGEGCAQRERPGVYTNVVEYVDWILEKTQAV
- Sequence (P03951 19-387 partner limits assumed): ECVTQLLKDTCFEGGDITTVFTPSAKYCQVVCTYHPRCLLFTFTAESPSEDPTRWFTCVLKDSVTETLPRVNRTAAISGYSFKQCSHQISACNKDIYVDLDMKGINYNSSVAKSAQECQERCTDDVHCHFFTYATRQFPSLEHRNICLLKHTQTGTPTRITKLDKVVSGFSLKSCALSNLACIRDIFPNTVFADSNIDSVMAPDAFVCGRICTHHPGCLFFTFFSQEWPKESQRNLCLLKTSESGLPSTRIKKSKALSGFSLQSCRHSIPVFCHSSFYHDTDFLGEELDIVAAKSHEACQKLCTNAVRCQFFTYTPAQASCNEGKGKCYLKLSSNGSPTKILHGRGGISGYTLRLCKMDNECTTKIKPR
pIC50: −log10 of the molar value.
readout.label: pIC50

P. Cc1ncc(-c2c(C(F)F)ccc(Cl)c2F)nc1C(=O)Nc1cnn(C(C)c2cnc(N3C[C@H]4C[C@H]4C3=O)c(F)c2)c1 (single isomer, unassigned) [Example 52]
Q. COc1ncc(-c2c(OC(F)F)ccc(Cl)c2F)nc1C(=O)Nc1cnn(C(C)c2cnc(N3C[C@H]4C[C@H]4C3=O)c(C)n2)c1 (single isomer, unassigned) [Example 241]
Which entry shows the lesser value of pIC50 here, P or Q ? When you have decided, please share the label of that item.
P
(P: 5.32, Q: 6.42)

----------
- test.target: human Factor XIa (Homo sapiens (Human), UniProt P03951)
pIC50: −log10 of the molar value.
readout.label: pIC50

Please review the entries below; each comes with its answer.
# compound, test.target, readout.label, value.reported
measured = [
    ("Cc1cc(C(C)n2cc(NC(=O)c3nc(-c4c(C(F)F)ccc(Cl)c4F)cnc3C(C)O)cn2)cnc1N1C[C@H]2C[C@H]2C1=O (single isomer, unassigned) [Example 211]", "human Factor XIa (Homo sapiens (Human), UniProt P03951)", "pIC50", 7.30),
    ("Cc1nc(C(C)n2cc(NC(=O)c3nc(-c4c(C(F)F)ccc(Cl)c4F)cnc3C(F)F)cn2)cnc1N1C[C@H]2C[C@H]2C1=O (single isomer, unassigned) [Example 100]", "human Factor XIa (Homo sapiens (Human), UniProt P03951)", "pIC50", 5.70),
    ("Cc1cc(Cn2cc(NC(=O)c3nc(-c4c(OC(F)F)ccc(Cl)c4F)cnc3C)cn2)nnc1N1C[C@H]2C[C@H]2C1=O", "human Factor XIa (Homo sapiens (Human), UniProt P03951)", "pIC50", 6.94),
]

A. Cc1ncc(-c2c(C(F)F)ccc(Cl)c2F)nc1C(=O)Nc1cnn(C(C)c2cnc(N3C[C@H]4C[C@H]4C3=O)c(F)c2)c1 (single isomer, unassigned) [Example 51]
B. Cc1nc(C(C)n2cc(NC(=O)c3cncc(-c4c(C(F)F)ccc(Cl)c4F)n3)cn2)cnc1N1C[C@H]2C[C@H]2C1=O (single isomer, unassigned)
Looking only at measured pIC50, which entry is lower, A or B ? Could you answer with the label of the item you picked?
B

I. Cc1cc(C(C)n2cc(NC(=O)c3nc(-c4c(C(F)F)ccc(Cl)c4F)cnc3C(C)O)cn2)nnc1N1C[C@H]2C[C@H]2C1=O (single isomer, unassigned)
II. Cc1nc(N2C[C@@H]3C[C@@H]3C2=O)ncc1Cn1cc(NC(=O)c2nc(-c3c(C(F)F)ccc(Cl)c3F)cnc2C)cn1
Identify the item whose pIC50 is the smaller number: I or II When you have decided, please share the label of that item.
II
(II: 5.54, I: 6.04)

a. Cc1cc(C(C)n2cc(NC(=O)c3nc(-c4c(C(F)F)ccc(Cl)c4F)cnc3C)cn2)nnc1N1C[C@H]2C[C@H]2C1=O (single isomer, unassigned)
b. Cc1ncc(-c2c(C(F)F)ccc(Cl)c2F)nc1C(=O)Nc1cnn(C(C)c2cnc(N3C[C@H]4C[C@H]4C3=O)c(F)c2C)c1 (single isomer, unassigned)
Of a versus b , which is the one with smaller reported pIC50? Give the chosen item's label as your response.
b

a. COc1ncc(-c2c(OC(F)F)ccc(Cl)c2F)nc1C(=O)Nc1cnn(C(C)c2cnc(N3C[C@H]4C[C@H]4C3=O)c(C)n2)c1 (single isomer, unassigned) [Example 240]
b. Cc1nc(N2C[C@H]3C[C@H]3C2=O)ncc1[C@@H](C)n1cc(NC(=O)c2cncc(-c3c(C(F)F)ccc(Cl)c3F)n2)cn1
c. Cc1cc(C(C)n2cc(NC(=O)c3nc(-c4c(C#N)ccc(Cl)c4F)cnc3C)cn2)nnc1N1C[C@H]2C[C@H]2C1=O (single isomer, unassigned) [Example 237]
d. Cc1nc(C(C)n2cc(NC(=O)c3nc(-c4c(C(F)F)ccc(Cl)c4F)cnc3CO)cn2)cnc1N1C[C@H]2C[C@H]2C1=O (single isomer, unassigned)
Please rank these compounds by pIC50 in descending order. Your reply should list the labels following the order given in the request.
d, c, a, b
(d: 7.32, c: 6.25, a: 6.01, b: 5.12)

P. Cc1ncc(-c2c(C(F)F)ccc(Cl)c2F)nc1C(=O)Nc1cnn([C@@H](C)c2cnc(N3C[C@H]4C[C@H]4C3=O)c(N)c2)c1
Q. Cc1ncc(-c2c(C(F)F)ccc(Cl)c2F)nc1C(=O)Nc1cnn(Cc2cnc(N3C[C@H]4C[C@H]4C3=O)c3c2OCO3)c1
Between P and Q , which one shows the larger pIC50 value? Provide the label of your selected option as the answer.
Q
(Q: 6.61, P: 6.18)

----------
- test.target: Human plasma kallikrein (Homo sapiens (Human))
- Sequence (P03952 391-638): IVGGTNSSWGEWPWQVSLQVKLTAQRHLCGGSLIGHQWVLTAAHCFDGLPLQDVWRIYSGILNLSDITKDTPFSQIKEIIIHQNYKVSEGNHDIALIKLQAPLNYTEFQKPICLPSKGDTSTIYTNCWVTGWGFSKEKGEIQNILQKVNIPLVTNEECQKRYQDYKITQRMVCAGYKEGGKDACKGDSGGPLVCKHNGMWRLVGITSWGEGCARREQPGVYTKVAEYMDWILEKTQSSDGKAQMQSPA
- Sequence (P03952 20-390 partner): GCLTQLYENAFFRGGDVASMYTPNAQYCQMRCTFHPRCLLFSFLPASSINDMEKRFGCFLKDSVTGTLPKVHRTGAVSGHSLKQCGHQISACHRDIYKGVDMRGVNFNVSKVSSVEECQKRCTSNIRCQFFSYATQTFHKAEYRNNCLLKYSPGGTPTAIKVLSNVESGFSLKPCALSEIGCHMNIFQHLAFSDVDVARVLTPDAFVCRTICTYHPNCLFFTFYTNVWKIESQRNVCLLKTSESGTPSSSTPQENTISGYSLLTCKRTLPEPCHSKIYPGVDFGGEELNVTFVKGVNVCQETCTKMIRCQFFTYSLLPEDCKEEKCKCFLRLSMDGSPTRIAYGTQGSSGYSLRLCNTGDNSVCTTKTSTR
- assay.protocol: Kallikrein Assay (fluorogenic substrate Acetyl-K-P-R-AFC)
- condition.details: Plasma Kallikrein (PKal)
readout.label: IC50 (nM)

Example entries and their recorded answers appear below.
# compound, IC50, nM
records = [
    ("Cc1c(Cn2cc(NC(=O)c3cncc(-c4c(C(F)F)ccc(Cl)c4F)n3)cn2)ccc(N2C[C@H]3C[C@H]3C2=O)c1C", 0.6),
    ("Cc1c(C(C)n2cc(NC(=O)c3cncc(-c4c(C(F)F)ccc(Cl)c4F)n3)cn2)nnc(N2C[C@H]3C[C@H]3C2=O)c1C (single isomer, unassigned) [Example 111]", 0.4),
    ("Cc1ncc(-c2c(C(F)F)ccc(Cl)c2F)nc1C(=O)Nc1cnn(C(CO)c2ccc(N3CC4CC4C3=O)nc2)c1 (single isomer, unassigned) [Example 162]", 8.7),
    ("Cc1ncc(-c2c(C(F)F)ccc(Cl)c2F)nc1C(=O)Nc1cnn(C(C)c2cnc(N3C[C@H]4C[C@H]4C3=O)c(F)c2C)c1 (single isomer, unassigned) [Example 128]", 7.1),
]

a. Cc1cc(C(C)n2cc(NC(=O)c3cc(-c4c(C(F)F)ccc(Cl)c4F)nnc3C)cn2)cnc1N1C[C@H]2C[C@H]2C1=O (single isomer, unassigned) [Example 122]
b. Cc1ncc(-c2c(C(F)F)ccc(Cl)c2F)nc1C(=O)Nc1cnn(Cc2ncc(N3C[C@H]4C[C@H]4C3=O)c(C)c2F)c1
Select one: a or b . Criterion: greater recorded IC50. Respond using the label that marks the chosen record.
a

1. Cc1nc(N2C[C@@H]3C[C@@H]3C2=O)ncc1Cn1cc(NC(=O)c2nc(-c3c(C(F)F)ccc(Cl)c3F)cnc2C)cn1
2. Cc1nc(C(C)n2cc(NC(=O)c3nc(-c4c(C(F)F)ccc(Cl)c4F)cnc3C(F)F)cn2)cnc1N1C[C@H]2C[C@H]2C1=O (single isomer, unassigned) [Example 101]
3. CC(c1cnc(N2C[C@H]3C[C@H]3C2=O)c2c1OCO2)n1cc(NC(=O)c2cncc(-c3c(C(F)F)ccc(Cl)c3F)n2)cn1 (single isomer, unassigned) [Example 250]
List the 3 entries from lowest IC50 to highest IC50 value. Output the labels ranked as instructed.
2, 3, 1
(2: 0.6 nM, 3: 3.2 nM, 1: 19.3 nM)

I. Cc1nc(N2C[C@H]3C[C@H]3C2=O)ncc1C(C)n1cc(NC(=O)c2nc(-c3c(C(F)F)ccc(Cl)c3F)cnc2CO)cn1 (single isomer, unassigned) [Example 195]
II. Cc1cc(C(C)n2cc(NC(=O)c3nc(-c4c(OC(F)F)ccc(Cl)c4F)cnc3C)cn2)cnc1N1C[C@H]2C[C@H]2C1=O (single isomer, unassigned) [Example 132]
Min IC50? I | II Label of pick, please.
II
(II: 0.6 nM, I: 18.2 nM)

----------
Target or system human Factor XIa (Homo sapiens (Human)): recorded pIC50 listed per item.
pIC50: −log10 of the molar value.
readout.label: pIC50

A. Cc1nc(Cn2cc(NC(=O)c3cncc(-c4c(C(F)F)ccc(Cl)c4F)n3)cn2)cnc1N1C[C@H]2C[C@H]2C1=O
B. CC(c1cnc(N2C[C@H]3C[C@H]3C2=O)c(F)c1)n1cc(NC(=O)c2nc(-c3c(C(F)F)ccc(Cl)c3F)cnc2CO)cn1 (single isomer, unassigned)
Among A and B , which shows a numerically higher pIC50 result? API: response body contains the label of the selected item.
B

----------
- test.target: Human plasma kallikrein (Homo sapiens (Human))
- assay.protocol: Kallikrein Assay (fluorogenic substrate Acetyl-K-P-R-AFC)
- Assay type: biochemical
- condition.details: Plasma Kallikrein (PKal)
pIC50: −log10 of the molar value.
readout.label: pIC50

See these solved cases before continuing.
# molecule, test.target, readout.label, value.reported
records = [
    ("CC(c1cnc(N2C[C@H]3C[C@H]3C2=O)c(F)c1)n1cc(NC(=O)c2nc(-c3c(C(F)F)ccc(Cl)c3F)cnc2CO)cn1 (single isomer, unassigned) [Example 205]", "Human plasma kallikrein (Homo sapiens (Human))", "pIC50", 9.52),
    ("Cc1cc(C(C)n2cc(NC(=O)c3nc(-c4c(C(F)F)ccc(Cl)c4F)cnc3C)cn2)nnc1N1C[C@H]2C[C@H]2C1=O (single isomer, unassigned) [Example 102]", "Human plasma kallikrein (Homo sapiens (Human))", "pIC50", 9.15),
    ("Cc1cc(C(C)n2cc(NC(=O)c3cncc(-c4c(C(F)F)ccc(Cl)c4F)n3)cn2)cnc1N1C[C@H]2C[C@H]2C1=O (single isomer, unassigned) [Example 67]", "Human plasma kallikrein (Homo sapiens (Human))", "pIC50", 8.68),
    ("Cc1cc(N2C[C@H]3C[C@H]3C2=O)ncc1C(C)n1cc(NC(=O)c2cncc(-c3c(C(F)F)ccc(Cl)c3F)n2)cn1 (single isomer, unassigned)", "Human plasma kallikrein (Homo sapiens (Human))", "pIC50", 8.96),
    ("Cc1ncc(-c2c(C(F)F)ccc(Cl)c2F)nc1C(=O)Nc1cnn(C(C)c2ncc(N3C[C@H]4C[C@H]4C3=O)cc2F)c1 (single isomer, unassigned)", "Human plasma kallikrein (Homo sapiens (Human))", "pIC50", 8.11),
    ("Cc1nc(C(C)n2cc(NC(=O)c3nc(-c4c(C(F)F)ccc(Cl)c4F)cnc3COC(C)(C)C)cn2)cnc1N1C[C@H]2C[C@H]2C1=O (mixture of isomers)", "Human plasma kallikrein (Homo sapiens (Human))", "pIC50", 9.05),
    ("Cc1ncc(-c2c(C(F)F)ccc(Cl)c2F)nc1C(=O)Nc1cnn([C@H](C)c2cnc(N3C[C@H]4C[C@H]4C3=O)c(N)c2)c1", "Human plasma kallikrein (Homo sapiens (Human))", "pIC50", 9.15),
    ("[2H]C1([2H])C2CC2C(=O)N1c1ncc([C@H](C)n2cc(NC(=O)c3nc(-c4c(C(F)F)ccc(Cl)c4F)cnc3C)cn2)c(C)n1 (single isomer, unassigned) [Example 179]", "Human plasma kallikrein (Homo sapiens (Human))", "pIC50", 9.15),
    ("Cc1nc(C2(n3cc(NC(=O)c4nc(-c5c(C(F)F)ccc(Cl)c5F)cnc4COC(C)(C)C)cn3)CC2)cnc1N1C[C@H]2C[C@H]2C1=O", "Human plasma kallikrein (Homo sapiens (Human))", "pIC50", 7.78),
]

1. C[C@@H](c1cnc(N2C[C@H]3C[C@H]3C2=O)nc1)n1cc(NC(=O)c2nc(-c3c(C(F)F)ccc(Cl)c3F)cnc2CC(C)(C)O)cn1
2. Cc1nc(C(C)n2cc(NC(=O)c3cncc(-c4c(C(F)(F)F)ccc(Cl)c4F)n3)cn2)cnc1N1C[C@H]2C[C@H]2C1=O (single isomer, unassigned) [Example 18]
For the pair 1 and 2 , which member has the lower pIC50 number? Let me know the label of the one you choose.
2
